B1: INTS4 (parent)
chain: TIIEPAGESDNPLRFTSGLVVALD

# Variants of: B1
# ASSAY EXPLANATION: protein stability index of a GFP-peptide fusion (GPS, HEK-293T) (PSI 1-6); higher = more stable;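 note: lentivirally expressed fusions sorted by FACS into six bins by GFP to DsRed ratio, PSI derived from sequencing read proportions per bin multiplied by bin number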
# MEASUREMENT PARAMETERS: c terminus: a fixed tail appended
TEST READOUT: protein stability index
Answers are plain numbers.

# example entries with known answers
S9I 2.78
G18V 2.15
E4L 2.33

Return reported protein stability index values for all items listed beneath this line.
1. S17H
2. A6M
3. D24W
4. L13T
5. G7V
6. N11Q
7. I2G

[2.5, 2.63, 2.4, 4.03, 2.76, 3, 3.51]

Return reported protein stability index values for all items listed beneath this line.
1. G18W
2. V20D
3. I3E

1: 2.09; 2: 4.38; 3: 4.4

Return reported protein stability index values for all items listed beneath this line.
1. S9V
2. V20C
3. G7L
4. G18Q
5. A6E
6. E8A

[2.92, 3.38, 2.67, 2.7, 3.74, 2.23]
